This listing pairs binders with measured pKd.
- TEST SYSTEM: T1, rNPR1-ANP complex (rat, UniProt P01160 124-151 (human entry), limits assumed)
- T1 construct: rNPR1 antigen in the presence of ANP; also called rNPR1 + 100 nM ANP
- T1 sequence: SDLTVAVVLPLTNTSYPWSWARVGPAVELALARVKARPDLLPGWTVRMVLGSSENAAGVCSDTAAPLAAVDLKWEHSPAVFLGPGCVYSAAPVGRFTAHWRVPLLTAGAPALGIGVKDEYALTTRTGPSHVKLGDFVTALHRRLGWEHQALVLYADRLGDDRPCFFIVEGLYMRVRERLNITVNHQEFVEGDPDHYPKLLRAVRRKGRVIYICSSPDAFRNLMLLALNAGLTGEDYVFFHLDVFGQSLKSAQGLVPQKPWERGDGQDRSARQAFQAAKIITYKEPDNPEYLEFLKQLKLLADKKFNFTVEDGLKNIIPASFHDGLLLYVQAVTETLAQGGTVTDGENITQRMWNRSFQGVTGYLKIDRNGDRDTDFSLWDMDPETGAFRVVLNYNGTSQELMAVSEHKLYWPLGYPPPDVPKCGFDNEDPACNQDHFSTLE
- T1 sequence (peptide): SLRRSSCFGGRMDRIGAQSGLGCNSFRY
- TEST METHOD NOTES: SET, FabCys
pKd: −log10 of the molar value.

>  <BINDER>
ZZ12 (FabCys format) (Fab, V domains shown, Monovalent FabCys) VH: EVQLVESGGGLVQPGGSLRLSCAASGFSFSKYYLNWVRQAPGKGLEWVASIHQQAHEKKYVESVKGRFTISRDNAKNSLYLQMNSLRAEDTAVYYCARSLRRRSTEHAGFDVWGQGTLVTVSS VL: DIQMTQSPSSLSASVGDRVTITCRASQGISNYLAWYQQKPGKVPKLLIYAASTLQSGVPSRFSGSGSGTDFTLTISSLQPEDVATYYCQQADKFPYTFGQGTKVEIK

>  <pKd>
8.85

$$$$
>  <BINDER>
ZZ13 (FabCys format) (Fab, V domains shown, Monovalent FabCys) VH: EVQLVESGGGLVQPGGSLRLSCAASGFTFSRYYINWVRQAPGKGLEWVASIHQHGLETRYVESVKGRFTISRDNAKNSLYLQMNSLRAEDTAVYYCARSLRRRSTEHAGFDVWGQGTLVTVSS VL: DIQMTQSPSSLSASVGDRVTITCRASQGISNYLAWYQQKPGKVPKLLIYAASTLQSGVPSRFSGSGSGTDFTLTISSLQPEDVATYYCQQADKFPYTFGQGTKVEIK

>  <pKd>
8.85

$$$$
>  <BINDER>
ZZ17 (FabCys format) (Fab, V domains shown, Monovalent FabCys) VH: EVQLLESGGGLVQPGGSLRLSCAASGFTFSDYAISWVRQAPGKGLEWVSSISGGGYHTQYAGSVKGRFTISRDNSKNTLYLQMNSLRAEDTAVYYCARPYLGDRRSYGFDHWGQGTLVTVSS VL: QSALTQPASVSGSPGQSITISCTGTSSDVGSYNLVSWYQQHPGKAPKLMIYEGSKRPSGVSNRFSGSKSGNTASLTISGLQAEDEADYYCSSYGFHIVVVVFGGGTKLTVL

>  <pKd>
7.44

$$$$
>  <BINDER>
ZZ16 (FabCys format) (Fab, V domains shown, Monovalent FabCys) VH: EVQLLESGGGLVQPGGSLRLSCAASGFTFGTYAMTWVRQAPGKGLEWVSSISASGYYANYAGSVKGRFTISRDNSKNTLYLQMNSLRAEDTAVYYCARPYLGDRRSYGFDHWGQGTLVTVSS VL: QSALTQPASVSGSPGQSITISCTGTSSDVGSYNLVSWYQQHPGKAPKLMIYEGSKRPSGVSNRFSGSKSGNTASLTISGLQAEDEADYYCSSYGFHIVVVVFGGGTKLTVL

>  <pKd>
7.29

$$$$
